biological target: T1, His-tagged soluble recombinant human IGF-IR (srhIGF-1R-his) (human, UniProt P08069 31-935); experiment: ALPHAScreen competition against b-hIGF-1 on srhIGF-1R-his
T1 construct: extracellular domain; Bought construct; not shown: His tag
observable: IC50
Answer format: value, then unit.

Which IC50 is reported for this binder? D112-12-RP30-IGF (peptide) ADYKDCWARPCGDAANFYDWFVQQASKKGGSGGSGGSGGSSFYSCLESLVNGGAERSDGQWEGCRAAAGAPVPYPDPLEPRPG 170 nM
